- Tested on: DeltatarO mutant
- EXPERIMENTAL_DETAILS: S. aureus survival, RN4220 and DeltatarO strains – OD600, teichoic acid synthesis inhibitors, primary screen (AID 463173)
- CONDITION_DETAILS: S. aureus RN4220 wild type/DeltatarO growth, OD600, 18 h, screened at 18.75 µg/mL (by protocol)
The whole screen tested about 52,000 compounds, of which about 4,300 (8.3%) were called active. Rule as the data show it: active = survival mostly below about 52% (no sharp cut-off); inactive = mostly above about 56%. This excerpt belongs to a sample that is enriched for actives.
Possible outcomes: yes for active, no for inactive

# MOLECULE, CATEGORY_LABEL
data = [
    ("CCOc1ccc(C(=O)c2cnc3ccc(Cl)cc3c2S(=O)(=O)c2ccc(C)cc2)cc1", "no"),
    ("Cc1ccc(N2CC(C(=O)NCCS(=O)(=O)N3CCN(c4ccc(F)cc4)CC3)CC2=O)cc1 (configuration not stated)", "no"),
    ("CC(=O)Nc1ccc(S(=O)(=O)NCc2ccc(C(=O)NCc3ccc(Cl)cc3)cc2)cc1", "no"),
    ("CCc1c(C)[nH][n+]2cnn(Cc3ccc(Cl)cc3)c2c1=O", "no"),
    ("CCC(CC)c1nn2c(=O)cc(COc3ccc(NC(=O)c4cccc(Cl)c4)cc3)nc2s1", "no"),
    ("Cc1ccc(C(=O)N/C(=C\\c2cn(S(=O)(=O)N(C)C)c3ccccc23)C(=O)NCCCn2ccnc2)cc1", "no"),
    ("S=c1[nH]nc(CCCOc2ccc(Cl)cc2Cl)o1", "no"),
    ("Cc1ccc(-c2ccc(=O)n(Cc3cc(C)ccc3C)n2)cc1", "yes"),
    ("CCN1CCN(c2cc(C)c3cc(NC(=O)/C=C/c4cccc(OC)c4OC)ccc3n2)CC1", "yes"),
    ("COc1ccc(-c2nc3ccccc3s2)cc1NC(=O)c1ccccc1F", "no"),
    ("Cc1ccc(-c2nnc(Nc3ccccc3)c3ccccc23)cc1S(=O)(=O)N1CCN(C)CC1", "no"),
    ("CCOC(=O)C1CCCN(C(=O)c2ccc(OCC)cc2)C1 (configuration not stated)", "no"),
    ("N#Cc1c[nH]n2c(NC3CCCCC3)c(-c3ccccc3F)nc12", "no"),
    ("CCOC(=O)C1CCN(c2c(C(=O)c3ccc(OCC)cc3)cnc3ccc(OC)cc23)CC1", "no"),
    ("Cc1ccc(-c2ccc(=O)n(CC(=O)NCCc3ccc(Cl)cc3)n2)cc1", "no"),
    ("Cc1[nH]c2ccccc2c1SCCNC(=O)c1ccc(F)cc1", "no"),
    ("Cc1ccc(CCNC(=O)Cn2nc(-c3ccc(C)cc3)ccc2=O)cc1", "yes"),
    ("CCOc1ccc2nc(N3CCCC(C(=O)NCc4ccc(C)cc4)C3)sc2c1 (configuration not stated)", "no"),
    ("Cc1ccc(C)c(-c2ccc(=O)n(Cc3c(F)cccc3Cl)n2)c1", "no"),
    ("COc1ccc(OC)c(S(=O)(=O)Nc2cc3c(cc2C)n(C)c(=O)c(=O)n3C)c1", "no"),
    ("O=C(CCC(=O)N1CCSc2ccccc21)NCc1ccccc1Cl", "no"),
    ("COc1ccc(-c2nc3ccccc3s2)cc1NC(=O)c1cc2ccccc2o1", "yes"),
    ("O=C(Nc1cccc(F)c1)c1ccc(-c2ccccc2)s1", "no"),
    ("O=C(Cc1csc2ccccc12)NCc1cccc(Br)c1", "no"),
    ("COc1ccc(CCNC(=O)Cn2cc(C(=O)c3ccccc3)c(=O)c3ccc(C)nc32)cc1OC", "no"),
    ("Cc1c(Cl)cccc1NC(=O)Cn1nc(C(F)(F)F)c2c1CCC2", "no"),
    ("COc1cccc(C(=O)N2CCCCC2CCN2CCCCC2)c1 (configuration not stated)", "no"),
    ("CCOc1ccc(/C=C/c2nc(C#N)c(NCc3ccc(OC)cc3)o2)cc1", "no"),
    ("COc1cc2ncc(C(=O)c3ccc(C)cc3)c(N3CCCCC3)c2cc1OC", "yes"),
    ("COc1ccc(-c2nc3ccccc3s2)cc1NC(=O)c1cccc([N+](=O)[O-])c1C", "yes"),
    ("Cc1cn2c(=O)cc(COC(=O)c3cccc(NC(=O)c4ccccc4Cl)c3)nc2s1", "no"),
    ("O=c1ccc(-c2ccccc2)nn1Cc1ccc(F)cc1Cl", "no"),
    ("COc1ccc(C(=O)Nc2cc(-c3nc4ccccc4s3)ccc2OC)cc1", "yes"),
    ("COc1cc(-c2nc3nc[nH]n3c2Nc2ccc(C(C)C)cc2)ccc1O", "no"),
    ("CSCCC(NS(=O)(=O)c1ccc2c(c1)oc(=O)n2C)C(=O)N1CCN(c2cccc(Cl)c2)CC1 (configuration not stated)", "no"),
    ("COc1ccc(-c2nc3ccccc3s2)cc1NC(=O)c1ccccc1OC", "no"),
    ("CCc1ccc2ncc(C(=O)c3ccc(C)c(C)c3)c(N3CCC(C(N)=O)CC3)c2c1", "no"),
    ("CN(C(=O)CSc1nc2ccccc2n1CC(=O)NCc1ccc(F)cc1)c1ccc(F)cc1", "no"),
    ("COc1ccc(CN2C3CCCC2CC(NC(=O)NC2CCCCC2)C3)cc1 (configuration not stated)", "no"),
    ("COc1ccc(Nc2c3c(nc4ccc(NC(=O)/C=C/c5cccc(OC)c5OC)cc24)CCCC3)cc1OC", "no"),
    ("CCN1CCN(c2cc(C)c3cc(NC(=O)/C=C/c4ccc(C)cc4)ccc3n2)CC1", "no"),
    ("Cc1ccc(Nc2nnc(-c3ccc(C)c(S(=O)(=O)N4CCN(C)CC4)c3)c3ccccc23)cc1", "no"),
]
